Assay: Steady-state plasma triapine
Assay type: in vivo, human
Settings: human, plasma, intravenous, 160 mg, CL, Arm A, dose 160, N=2, individual values
Endpoint name: clearance (mL/min)
Provide the reading as a plain figure in mL/min.

The compound listed as NC(=S)NN=Cc1ncccc1N [triapine] has a reported clearance of 635

---

Assay: Steady-state plasma triapine
Assay type: in vivo, human
Details: human, plasma, intravenous, CL (range), Arm B, 75 to 120 mg
Endpoint name: clearance

The compound listed as NC(=S)NN=Cc1ncccc1N [triapine] has a reported clearance of 265 to 899 mL/min

---

Experiment: Steady-state plasma triapine
Assay type: in vivo, human
Details: human, plasma, intravenous, 120 mg, CL, Arm A, dose 120, N=5, mean ± SD
Endpoint name: clearance (mL/min)
Provide the reading as a plain figure in mL/min.

The compound listed as NC(=S)NN=Cc1ncccc1N [triapine] has a reported clearance of 653

---

Assay: Steady-state plasma triapine
Type: in vivo, human
Conditions: human, plasma, intravenous, 90 mg, CL, Arm B, dose 90, N=10, mean ± SD
Endpoint name: clearance (mL/min)
Provide the reading as a plain figure in mL/min.

The molecule listed as NC(=S)NN=Cc1ncccc1N [triapine] has a reported clearance of 613

---

Test: Steady-state plasma triapine
Format: in vivo, human
Conditions: human, plasma, intravenous, CL (range), Arm A and B combined, 31 patients, 75 to 160 mg
Endpoint name: clearance

The compound listed as NC(=S)NN=Cc1ncccc1N [triapine] has a reported clearance of 226 to 899 mL/min

---

Experiment: Steady-state plasma triapine
Type: in vivo, human
Conditions: human, plasma, intravenous, CL, Arm B, all doses 75 to 120 mg, mean ± SD
Endpoint name: clearance (mL/min)
Provide the reading as a plain figure in mL/min.

The molecule listed as NC(=S)NN=Cc1ncccc1N has a reported clearance of 561

---

Test: Steady-state plasma triapine
Type: in vivo, human
Conditions: human, plasma, intravenous, CL, Arm A, all doses 75 to 160 mg, mean ± SD
Endpoint name: clearance (mL/min)
Provide the reading as a plain figure in mL/min.

The compound listed as NC(=S)NN=Cc1ncccc1N [triapine] has a reported clearance of 580

---

Experiment: Steady-state plasma triapine
Assay type: in vivo, human
Details: human, plasma, intravenous, 90 mg, CL, Arm A, dose 90, N=5, mean ± SD
Endpoint name: clearance (mL/min)
Provide the reading as a plain figure in mL/min.

The molecule listed as NC(=S)NN=Cc1ncccc1N [triapine] has a reported clearance of 497

---

Assay: Steady-state plasma triapine
Assay type: in vivo, human
Conditions: human, plasma, intravenous, CL (range), Arm A, 75 to 160 mg
Endpoint name: clearance

The compound listed as NC(=S)NN=Cc1ncccc1N has a reported clearance of 226 to 804 mL/min
